Reference for the values: PubChem BioAssay AID1159580

test.protocol: chemical genetic growth profiling, strain panel (AID 1159580);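 note: tested at 20 µM; growth read once vehicle control cultures reached saturation at 30 °C; 1 = growth at the plate median or of vehicle wells; lower values mean less growth of the strain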
conditions: S. cerevisiae deletion strains, growth OD, locus YOR070C, strain gyp1
The whole screen tested about 5,500 compounds, of which about 2,000 (36%) were called active. Not shown: some 18% with an inconclusive outcome. Cut-off read from the data, not from the text of the source: active = normalized growth mostly below about 0.91 (no sharp cut-off); inconclusive = no clear call, values can overlap the other calls; inactive = mostly above about 0.92. The list shows a part of the results. Where a SMILES comes first, the peptide text is derived from it. Bridges are numbered along the chain shown (N, C = ends). [ ]: non-standard residue; d: D form. The star is where a group is joined. ξ: configuration not given here. ξDab(CH2SO3H) = NC(CCNCS(=O)(=O)O)C(=O)O; Heptanoyl(6-Me) = CC(C)CCCCC(=O)*; Dab = NCC[CH](N)C(=O)O
Outcome field: choose from True for active, False for inactive

- compound: "COC(=O)Nc1nc2ccc(Sc3ccccc3)cc2[nH]1"
  category.label: "False"
- compound: "CCC(C)C1NC(=O)C(CCNCS(=O)(=O)O)NC(=O)C(NC(=O)C(CCNCS(=O)(=O)O)NC(=O)C(NC(=O)C(CCNCS(=O)(=O)O)NC(=O)CCCCC(C)C)C(C)O)CCNC(=O)C(C(C)O)NC(=O)C(CCNCS(=O)(=O)O)NC(=O)C(CCNCS(=O)(=O)O)NC(=O)C(C(C)CC)NC1=O (stereo unspecified) ({Heptanoyl(6-Me)}-[ξDab(CH2SO3H)]T[ξDab(CH2SO3H)][Dab][ξDab(CH2SO3H)]II[ξDab(CH2SO3H)][ξDab(CH2SO3H)]T; lactam 4-C; configuration not given here)"
  category.label: "False"
- compound: "C[C@@H]1CC[C@H]2[C@@H](C)C(O)O[C@@H]3O[C@@]4(C)CC[C@@H]1[C@]32OO4 (stereo partly specified)"
  category.label: "True"
- compound: "NNc1nncc2ccccc12"
  category.label: "False"

QUERY: Could you check what this test reported for "COc1cc(C(=O)O[C@H]2CC[C@@]3(C)[C@@H]4CC[C@H]5[C@]6(O)C[C@H](O)[C@@]7(O)[C@@H](CN8C[C@@H](C)CC[C@H]8[C@@]7(C)O)[C@]6(O)C[C@@]53O[C@]24O)cc(OC)c1OC" ?
RESULT: False

QUERY: Now try Nc1c2c(nc3ccccc13)CCCC2O (stereo unspecified) .
RESULT: False

====

test.protocol: chemical genetic growth profiling, strain panel (AID 1159580);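 note: tested at 20 µM; growth read once vehicle control cultures reached saturation at 30 °C; 1 = growth at the plate median or of vehicle wells; lower values mean less growth of the strain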
conditions: S. cerevisiae deletion strains, growth OD, locus YNL128W, strain TEP1, active compounds read low
About 2,000 (36%) of roughly 5,500 compounds were called active. Inconclusive results (about 18%) are left out. Some of the results follow.
Kindly supply the reported normalized growth values for the records listed here.
One number for each entry.

Before answering, review these 3 worked examples.
- smi: "CC(C)(C=O)Cc1cc(C(C)(C)C)c(O)c(C(C)(C)C)c1"
  normalized growth: 1.02
- smi: "Nc1c2ccccc2nc2ccccc12"
  normalized growth: 0.733
- smi: "CNC(=O)O/N=C\\C(C)(C)SC"
  normalized growth: 1.01

Next compound, normalized growth to be filled in.
QUERY: Fill in the blank: the reported normalized growth of "COc1cc(-c2ccc(=O)[nH]n2)ccc1OC(F)F" is ____.
RESULT: 1.01

====

test.protocol: chemical genetic growth profiling, strain panel (AID 1159580);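 note: tested at 20 µM; growth read once vehicle control cultures reached saturation at 30 °C; 1 = growth at the plate median or of vehicle wells; lower values mean less growth of the strain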
conditions: S. cerevisiae deletion strains, growth OD, locus YPL051W, strain arl3, active compounds read low
The whole screen tested about 5,500 compounds, of which about 2,000 (36%) were called active. About 18% were inconclusive and are not listed. Some of the results follow.
Assignment: determine reported normalized growth for the given compounds.
Numbers only.

- compound: "N#CC(O[C@@H]1O[C@H](CO[C@@H]2O[C@H](CO)[C@@H](O)[C@H](O)[C@H]2O)[C@@H](O)[C@H](O)[C@H]1O)c1ccccc1 (stereo partly specified)"
  property.measured: "normalized growth"
  reported.result: 0.98

For every listed record, write down its normalized growth.
1. CC(C)(Sc1cc(C(C)(C)C)c(O)c(C(C)(C)C)c1)Sc1cc(C(C)(C)C)c(O)c(C(C)(C)C)c1
2. Cc1cn([C@H]2C[C@H](N=[N+]=[N-])[C@@H](CO)O2)c(=O)[nH]c1=O
3. COc1ccc2c3c([nH]c2c1)C(C)=NCC3
4. CC1(C)CC[C@]2(C)CC[C@]3(C)C(=CCC4[C@@]5(C)CC[C@H](O)C(C)(C)C5CC[C@]43C)C2C1 (stereo partly specified)
5. COc1ccc2[nH]cc(CCN)c2c1

RESULT:
1. 0.988
2. 0.985
3. 0.999
4. 1
5. 1.01
